Test system: Reduced glutathione in salivary gland cell clusters (SGm)
method notes: Glutathione assay in salivary gland tissue chip, 4 days post-radiation (15 Gy); also first screen of Selleck library at 100 μM
Format: cell-based, mouse
experimental context: first screen of Selleck library at 100 μM, 15 Gy, 4 days post-radiation
Counter-ions that a name gives are not always drawn.
Entries annotated with measured Glutathione normalized mean intensity
reported property: Glutathione normalized mean intensity

>>> print(df.to_string())
                                    molecule                               test_target  data_value
 0  CC(=O)[C@H]1CC[C@H]2[C@@H]3CC=C4C[C@@H](O)CC[C@]4(C)[C@H]3CC[C@]12C  Reduced glutathione in salivary gland cell clusters (SGm)      0.6057
 1  COC(=O)Nc1nc2cc(C(=O)c3ccc(F)cc3)ccc2[nH]1  Reduced glutathione in salivary gland cell clusters (SGm)       1.065
 2  NCC1CCC(C(=O)O)CC1 (stereo not shown) [Tranexamic acid (Transamin)]  Reduced glutathione in salivary gland cell clusters (SGm)      0.7568
 3  O=C1c2ccccc2C(=O)C1c1ccccc1 [Phenindione (Rectadione)]  Reduced glutathione in salivary gland cell clusters (SGm)      0.6802
 4  CN1CCC[C@@H]1CCO[C@](C)(c1ccccc1)c1ccc(Cl)cc1 [Clemastine Fumarate]  Reduced glutathione in salivary gland cell clusters (SGm)       1.106
 5                   Oc1c(Cl)cc(Cl)c2cccnc12  Reduced glutathione in salivary gland cell clusters (SGm)      0.1604
 6             Nc1nc(N)nc(-c2cc(Cl)ccc2Cl)n1  Reduced glutathione in salivary gland cell clusters (SGm)       0.613
 7  CN(C)c1ccc(C(=C2C=CC(=[N+](C)C)C=C2)c2ccc(N(C)C)cc2)cc1  Reduced glutathione in salivary gland cell clusters (SGm)      0.1262
 8  CNC(=C[N+](=O)[O-])NCCSCc1ccc(CN(C)C)o1 [Ranitidine (Zantac)]  Reduced glutathione in salivary gland cell clusters (SGm)      0.4295
 9  CC(C(=O)O)c1ccc2c(c1)Cc1cccnc1O2 (stereo not shown)  Reduced glutathione in salivary gland cell clusters (SGm)      0.7582
10  OCCN(CCO)c1nc(N2CCCCC2)c2nc(N(CCO)CCO)nc(N3CCCCC3)c2n1 [Dipyridamole (Persantine)]  Reduced glutathione in salivary gland cell clusters (SGm)      0.5847
11  CC(N)C12CC3CC(CC(C3)C1)C2 (stereo not shown)  Reduced glutathione in salivary gland cell clusters (SGm)      0.3987
12  CCCCC(=O)N(Cc1ccc(-c2ccccc2-c2nn[nH]n2)cc1)[C@H](C(=O)O)C(C)C  Reduced glutathione in salivary gland cell clusters (SGm)      0.6351
13  COC(=O)Nc1nc2ccc([S+]([O-])c3ccccc3)cc2[nH]1 (stereo not shown)  Reduced glutathione in salivary gland cell clusters (SGm)         0.6
14                 Cc1ncc([N+](=O)[O-])n1CCO  Reduced glutathione in salivary gland cell clusters (SGm)      0.5627
15  CCOC(=O)[C@H](CCc1ccccc1)N[C@@H](C)C(=O)N1CCC[C@H]1C(=O)O [Enalapril maleate (Vasotec)]  Reduced glutathione in salivary gland cell clusters (SGm)      0.8307
